Origin of values: the supplement of paper PMC10849652

target-under-test: ZMYM3 (UniProt Q14202)
Sequence (Q14202 whole entry, looked up): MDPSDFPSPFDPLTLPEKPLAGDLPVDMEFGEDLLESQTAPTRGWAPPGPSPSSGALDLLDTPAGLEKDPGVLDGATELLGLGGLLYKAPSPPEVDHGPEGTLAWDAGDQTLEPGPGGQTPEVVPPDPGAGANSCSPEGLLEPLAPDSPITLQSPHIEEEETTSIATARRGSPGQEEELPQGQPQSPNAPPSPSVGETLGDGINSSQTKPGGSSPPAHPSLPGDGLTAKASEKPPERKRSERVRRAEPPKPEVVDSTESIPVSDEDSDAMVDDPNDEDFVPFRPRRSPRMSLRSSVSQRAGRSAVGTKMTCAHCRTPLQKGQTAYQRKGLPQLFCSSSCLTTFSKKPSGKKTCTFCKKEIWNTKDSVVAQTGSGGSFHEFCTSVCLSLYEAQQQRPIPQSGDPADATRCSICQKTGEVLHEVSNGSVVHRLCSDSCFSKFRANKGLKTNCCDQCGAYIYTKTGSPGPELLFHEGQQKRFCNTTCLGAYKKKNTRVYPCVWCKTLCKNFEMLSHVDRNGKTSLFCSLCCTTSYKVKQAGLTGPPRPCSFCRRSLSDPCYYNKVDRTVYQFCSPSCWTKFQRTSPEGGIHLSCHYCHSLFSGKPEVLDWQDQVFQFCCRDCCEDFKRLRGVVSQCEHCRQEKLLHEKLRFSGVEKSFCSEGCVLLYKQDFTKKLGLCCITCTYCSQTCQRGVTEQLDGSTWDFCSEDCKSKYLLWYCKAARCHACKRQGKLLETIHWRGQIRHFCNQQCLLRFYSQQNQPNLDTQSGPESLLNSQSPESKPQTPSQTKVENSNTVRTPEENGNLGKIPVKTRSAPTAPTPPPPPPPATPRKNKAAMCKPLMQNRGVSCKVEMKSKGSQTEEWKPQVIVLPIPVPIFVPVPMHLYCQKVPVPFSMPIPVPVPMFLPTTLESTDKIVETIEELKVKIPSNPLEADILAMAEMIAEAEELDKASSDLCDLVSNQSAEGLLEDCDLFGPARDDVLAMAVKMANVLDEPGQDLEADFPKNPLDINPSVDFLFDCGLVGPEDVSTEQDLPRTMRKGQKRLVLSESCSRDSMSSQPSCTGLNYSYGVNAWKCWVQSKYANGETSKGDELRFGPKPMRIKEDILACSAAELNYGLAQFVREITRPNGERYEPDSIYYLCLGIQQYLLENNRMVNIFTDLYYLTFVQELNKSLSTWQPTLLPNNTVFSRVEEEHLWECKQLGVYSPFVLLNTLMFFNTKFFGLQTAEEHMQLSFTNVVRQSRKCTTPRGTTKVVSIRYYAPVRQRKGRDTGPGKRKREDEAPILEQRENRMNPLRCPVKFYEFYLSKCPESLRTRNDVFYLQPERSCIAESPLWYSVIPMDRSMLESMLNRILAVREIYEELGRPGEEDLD
protocol-summary: log2 fold change, soluble protein after heating vs DMSO (PISA); higher = thermal stabilisation; K562 cells, 10 uM, 30 min; active = over 0.2 and 3.5 SD of the protein, either way, in both replicates (recomputed)
Of roughly 7,900 targets only a part is listed; those with a hit were picked by preference. About 0.6% of all pairs of compound and target were hits.
Please provide measured log2 fold change for the entries that follow.
The response must contain the number and no unit.

Prompt: State the recorded log2 fold change for this entry: Cc1ncc(-c2ccnc(Nc3ccc(S(C)(=O)=O)cc3)n2)n1C(C)C
Response: -0.009

Prompt: State the recorded log2 fold change for this entry: C[C@@H](Oc1cc(-c2cnn(C3CCNCC3)c2)cnc1N)c1c(Cl)ccc(F)c1Cl [crizotinib]
Response: 0.04

Prompt: State the recorded log2 fold change for this entry: Nc1ccccc1NC(=O)c1ccc(CNC(=O)OCc2cccnc2)cc1 [entinostat]
Response: -0.073

Prompt: State the recorded log2 fold change for this entry: CO[C@H]1C[C@@H]2CC[C@@H](C)[C@@](O)(O2)C(=O)C(=O)N2CCCC[C@H]2C(=O)O[C@H]([C@H](C)C[C@@H]2CC[C@H](n3cnnn3)[C@H](OC)C2)CC(=O)[C@H](C)/C=C(\C)[C@@H](O)[C@@H](OC)C(=O)[C@H](C)C[C@H](C)/C=C/C=C/C=C/1C [zotarolimus]
Response: 0.093

Prompt: State the recorded log2 fold change for this entry: CS(=O)(=O)N1CCN(Cc2cc3nc(-c4cccc5[nH]ncc45)nc(N4CCOCC4)c3s2)CC1 [pictilisib]
Response: -0.022

Prompt: State the recorded log2 fold change for this entry: CCCS(=O)(=O)Nc1ccc(F)c(C(=O)c2c[nH]c3ncc(-c4ccc(Cl)cc4)cc23)c1F [vemurafenib]
Response: -0.109

Prompt: State the recorded log2 fold change for this entry: O=C(Nc1nc2ccccc2n1CCN1CCOCC1)c1cccc([N+](=O)[O-])c1 [IRAK-1-4 Inhibitor I]
Response: 0.057

Prompt: State the recorded log2 fold change for this entry: Cc1cn(-c2cc(NC(=O)c3ccc(C)c(Nc4nccc(-c5cccnc5)n4)c3)cc(C(F)(F)F)c2)cn1 [nilotinib]
Response: 0.041

Prompt: State the recorded log2 fold change for this entry: CCn1c(C(=O)N(C2CC2)C2CC2)cc2c3c(ncn3C)c(Nc3cc(C)n(C)n3)nc21
Response: -0.029

Prompt: State the recorded log2 fold change for this entry: C[C@H](Nc1ncnc2nc[nH]c12)c1cc2cccc(Cl)c2c(=O)n1-c1ccccc1 [duvelisib]
Response: 0.021

Prompt: State the recorded log2 fold change for this entry: COc1cc2ncnc(Nc3ccc(F)c(Cl)c3)c2cc1OCCCN1CCOCC1 [gefitinib]
Response: 0.034

Prompt: State the recorded log2 fold change for this entry: Cc1ccc(NC(=O)c2ccc(CN3CC[C@H](N(C)C)C3)c(C(F)(F)F)c2)cc1Nc1nccc(-c2cncnc2)n1 [bafetinib]
Response: -0.061

Prompt: State the recorded log2 fold change for this entry: O=C(CCCCCCC(=O)Nc1ccccc1)NO [vorinostat]
Response: 0.073

Prompt: State the recorded log2 fold change for this entry: CN1CCc2c(c3ccccc3n2Cc2ccc(C(=O)NO)cc2)C1 [Tubastatin A]
Response: -0.028

Prompt: State the recorded log2 fold change for this entry: CNCc1ccc(-c2[nH]c3cc(F)cc4c3c2CCNC4=O)cc1 [rucaparib]
Response: 0.049

Prompt: State the recorded log2 fold change for this entry: NC(=O)c1ccc2nc(-c3ccc(Oc4ccc(Cl)cc4)cc3)[nH]c2c1
Response: -0.02

Prompt: State the recorded log2 fold change for this entry: CN1CCN(c2nc(C3=C(c4c[nH]c5ccccc45)C(=O)NC3=O)c3ccccc3n2)CC1 [sotrastaurin]
Response: 0.027

Prompt: State the recorded log2 fold change for this entry: CS(=O)(=O)c1ccc(-c2cnc(N)c(C(=O)Nc3ccccc3)n2)cc1
Response: 0.023
